Target: T1, KIX domain of CREB-binding protein (residues 586–672 of mouse CBP) (mouse, UniProt P45481 586-672)
T1 construct: KIX domain, residues 586-672 of mouse CBP; 6xHis-tag and thrombin cleavage site at the N-terminus; source: E. coli BL21(DE3)pLysS, purified (Ni-NTA, gel filtration on Superdex 200 pg)
T1 sequence (P45481 586-672): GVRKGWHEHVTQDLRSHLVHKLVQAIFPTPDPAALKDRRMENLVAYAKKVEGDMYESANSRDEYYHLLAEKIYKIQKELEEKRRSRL
Test: ITC; 600 μM MLL solution titrated into the cell containing 45 µM KIX; 30 °C; 20 mM Tris–acetate pH 7.0, 50 mM NaCl; one-site binding model
Details: both partners purified
Known dH of a selection of binders
A number alone suffices; assume kcal/mol.

Record excerpt, results attached:
binder="GNILPSDIMDFVLRNTPSMQALGESPESY (MLL TAD, residues 2842-2869 of human MLL, with the substitution; Tyr residue attached at the C-terminus for concentration determination by UV absorption; One of the four mutants used without His-tag–GB1 in ITC as well as in CD; source: E. coli BL21(DE3), purified (Ni-NTA, thrombin digestion on the column, anion exchange); not shown: His6, N-terminal, cleaved) [MLL TAD peptide K2855R without His-tag–GB1]" result_unit=kcal/mol observed_value=-13.8
binder="GNILPSDIMLFVLKNTPSMQALGESPESY (MLL TAD, residues 2842-2869 of human MLL, with the substitution; Tyr residue attached at the C-terminus for concentration determination by UV absorption; One of the four mutants used without His-tag–GB1 in ITC as well as in CD; source: E. coli BL21(DE3), purified (Ni-NTA, thrombin digestion on the column, anion exchange); not shown: His6, N-terminal, cleaved) [MLL TAD peptide D2851L without His-tag–GB1]" result_unit=kcal/mol observed_value=-8.8
binder="GNILPSDIMDFVLKNFPSMQALGESPESY (MLL TAD, residues 2842-2869 of human MLL, with the substitution; Tyr residue attached at the C-terminus for concentration determination by UV absorption; source: E. coli BL21(DE3), purified (Ni-NTA); not shown: His6, N-terminal, kept) [His-tag–GB1–MLL TAD T2857F]" result_unit=kcal/mol observed_value=-11.1
binder="GNILPSDIMDFVLRNLPSMQALGESPESY (MLL TAD, residues 2842-2869 of human MLL, with the substitutions; Tyr residue attached at the C-terminus for concentration determination by UV absorption; also called K2855R/T2857L double mutant; source: E. coli BL21(DE3), purified (Ni-NTA); not shown: His6, N-terminal, kept) [His-tag–GB1–MLL TAD K2855R/T2857L]" result_unit=kcal/mol observed_value=-9.5
binder="GNILPSDIMDFVLKNTPSMQALGESPESY (MLL TAD, residues 2842-2869 of human MLL; Tyr residue attached at the C-terminus for concentration determination by UV absorption; Used in ITC and immobilised in SPR; also called wild-type MLL TAD; WT; source: E. coli BL21(DE3), purified (Ni-NTA); not shown: His6, N-terminal, kept) [His-tag–GB1–MLL TAD (wild type)]" result_unit=kcal/mol observed_value=-13.1

INPUT: What measured dH goes with GNILPSDIMDFVLRNWPSMQALGESPESY (MLL TAD, residues 2842-2869 of human MLL, with the substitutions; Tyr residue attached at the C-terminus for concentration determination by UV absorption; also called K2855R/T2857W double mutant; source: E. coli BL21(DE3), purified (Ni-NTA); not shown: His6, N-terminal, kept) [His-tag–GB1–MLL TAD K2855R/T2857W] ?
OUTPUT: -12.2

INPUT: Continue with GNILPSDIMDFVLKNIPSMQALGESPESY (MLL TAD, residues 2842-2869 of human MLL, with the substitution; Tyr residue attached at the C-terminus for concentration determination by UV absorption; One of the four mutants used without His-tag–GB1 in ITC as well as in CD; source: E. coli BL21(DE3), purified (Ni-NTA, thrombin digestion on the column, anion exchange); not shown: His6, N-terminal, cleaved) [MLL TAD peptide T2857I without His-tag–GB1]
OUTPUT: -10

INPUT: Continue with GNILPSDIMDFVLKNRPSMQALGESPESY (MLL TAD, residues 2842-2869 of human MLL, with the substitution; Tyr residue attached at the C-terminus for concentration determination by UV absorption; source: E. coli BL21(DE3), purified (Ni-NTA); not shown: His6, N-terminal, kept) [His-tag–GB1–MLL TAD T2857R]
OUTPUT: -12.6

INPUT: Continue with GNILPSDLMDFVLKNTPSMQALGESPESY (MLL TAD, residues 2842-2869 of human MLL, with the substitution; Tyr residue attached at the C-terminus for concentration determination by UV absorption; One of the four mutants used without His-tag–GB1 in ITC as well as in CD; source: E. coli BL21(DE3), purified (Ni-NTA, thrombin digestion on the column, anion exchange); not shown: His6, N-terminal, cleaved) [MLL TAD peptide I2849L without His-tag–GB1]
OUTPUT: -12.3

INPUT: Continue with GNILPSDIMDFVLKNAPSMQALGESPESY (MLL TAD, residues 2842-2869 of human MLL, with the substitution; Tyr residue attached at the C-terminus for concentration determination by UV absorption; source: E. coli BL21(DE3), purified (Ni-NTA); not shown: His6, N-terminal, kept) [His-tag–GB1–MLL TAD T2857A]
OUTPUT: -11.8

INPUT: Continue with GNILPSDIMDFVLKNYPSMQALGESPESY (MLL TAD, residues 2842-2869 of human MLL, with the substitution; Tyr residue attached at the C-terminus for concentration determination by UV absorption; source: E. coli BL21(DE3), purified (Ni-NTA); not shown: His6, N-terminal, kept) [His-tag–GB1–MLL TAD T2857Y]
OUTPUT: -12.3

INPUT: Continue with GNILPSDIMDFVLKNKPSMQALGESPESY (MLL TAD, residues 2842-2869 of human MLL, with the substitution; Tyr residue attached at the C-terminus for concentration determination by UV absorption; source: E. coli BL21(DE3), purified (Ni-NTA); not shown: His6, N-terminal, kept) [His-tag–GB1–MLL TAD T2857K]
OUTPUT: -11.7

INPUT: Continue with GNILPSDIMDFVLKNWPSMQALGESPESY (MLL TAD, residues 2842-2869 of human MLL, with the substitution; Tyr residue attached at the C-terminus for concentration determination by UV absorption; Used in ITC; also called designed T2857W peptide; T2857W mutant of the MLL TAD peptide; source: E. coli BL21(DE3), purified (Ni-NTA); not shown: His6, N-terminal, kept) [His-tag–GB1–MLL TAD T2857W]
OUTPUT: -12.8

INPUT: Continue with GNILPSDIMDFVLKNLPSMQALGESPESY (MLL TAD, residues 2842-2869 of human MLL, with the substitution; Tyr residue attached at the C-terminus for concentration determination by UV absorption; source: E. coli BL21(DE3), purified (Ni-NTA); not shown: His6, N-terminal, kept) [His-tag–GB1–MLL TAD T2857L]
OUTPUT: -10.5

Cited source: paper PMC10113271
